SYSTEM UNDER TEST: UniProtKB P31389
Sequence (P31389 whole entry): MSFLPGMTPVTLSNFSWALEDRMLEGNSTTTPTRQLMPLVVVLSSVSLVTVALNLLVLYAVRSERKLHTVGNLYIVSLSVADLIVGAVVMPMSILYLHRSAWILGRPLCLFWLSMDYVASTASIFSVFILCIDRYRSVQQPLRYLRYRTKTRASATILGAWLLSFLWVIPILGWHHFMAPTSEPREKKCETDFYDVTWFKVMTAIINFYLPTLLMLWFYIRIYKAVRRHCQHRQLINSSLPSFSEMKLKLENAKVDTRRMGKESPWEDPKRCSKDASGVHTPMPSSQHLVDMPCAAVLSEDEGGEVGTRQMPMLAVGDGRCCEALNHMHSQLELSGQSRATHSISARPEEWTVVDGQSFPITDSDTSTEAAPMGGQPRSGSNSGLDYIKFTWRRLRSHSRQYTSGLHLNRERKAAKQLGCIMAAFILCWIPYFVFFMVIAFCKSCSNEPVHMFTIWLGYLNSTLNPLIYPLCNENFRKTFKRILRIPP
OBSERVABLE: pKi
Remember the convention: pKi equals -log10 of concentration in molar.

query: Tell me reported pKi for Cc1ccc(/C(=C\CN2CCCC2)c2ccccn2)cc1 [Actahist] , tested with UniProtKB P31389.
result: 9.51
